# ASSAY_METHOD_TEXT: protein stability index of a GFP-peptide fusion (GPS, HEK-293T) (PSI 1-6); higher = more stable;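 also: 24-mer peptide tiles fused after GFP, lentivirally expressed, FACS-sorted into six equal bins by GFP/DsRed ratio, decoded by Illumina sequencing, PSI is the read-weighted mean bin number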
# COND: treatment: DMSO; c terminus: a fixed tail appended
READOUT_TYPE: protein stability index

# count of solved cases: 2
1. TPLHIAAQNNCPAIMNALIEAGAH [FEM1A]
3.07
2. SWARQESLQERKQALYEYARRRFT [AUP1]
3.8

For this sequence ( QNQEYKMLLDIKTRLEQEIATYRS [KRT15] ), measured protein stability index is 3.31

Short answer for RVTNVGSLLLTPQENESLFTFLGK [WASL] : protein stability index was 2.84

protein stability index reported for this sequence VKDTDDVPMILVGNKCDLEDERVV [RAP1B] : 4.65

The measured protein stability index associated with LTSRIKGDWIGLYRHFLKSPNFDG [DENND6A] reads 2.01

protein stability index reported for this sequence LDVEAAHSEILKYFQSVTSNRWLM [STX5] : 2.06

Query NDMSPSNNVVPIHVPPTTENKPKV [RAB11A] yields protein stability index of 5.42

// protein stability index lookup, sequence = TLICRKLGGVKKSATLRSFEGLMG [TPD52L3] , result: 2.06
